Cited source for all entries: patent US20250027068

# TARGET_UNDER_TEST: pooled human IgG (human IgG1,2,3 and 4)
Sorting guide: entries reporting Enzyme Activity Endpoint Assay (purified): Fab'2 beneath 500 ng/µL go in the 1 pile, the rest go in the 0 pile.

protein="PRT-303 (protein) MVTSVWTKGVTPPTDFIKGEDVFHAPYDAGQGWYDITKTFNGKDDLLCGAATAGNMLHWWFDQNKEYIEAYLKKHPEKQKIMFGDQELLDVRKAINTKGSQKNSELFNYFRDKAFPNLSARRLGVMPDLVLDMFINGYYLNVTKTQTTDVNRTYQEKDKRGGIFDAVFTRGDQSKLLTSRHDFKEKGLKEISDLIKQELTEGKALGLSHTYANVRISHVINLWGADFDSDGNLKAIYVTDSDSNASIGMKKYGVGVNSAGKVAISAKEIKEDNIGAQVLGLFTLSTGQDIWNQTN" category=0
protein="PRT-302 (protein) MVTSVWTKGVTPPTDFIKGEDVFHAPYKAGQGWYDITKTFNGKDDLLCGAATAGNMLHWWFDQNKEYIEAYLKKHPEKQKIMFGDQELLDVRKAINTKGSQKNSELFNYFRDKAFPNLSARRLGVMPDLVLDMFINGYYLNVTKTQTTDVNRTYQEKDKRGGIFDAVFTRGDQSKLLTSRHDFKEKGLKEISDLIKQELTEGKALGLSHTYANVRLNHVINLWGADFDSDGNLKAIYVTDSDSNASIGMKKYGVGVNSAGKVAISAKEIKEDNIGAQVLGLFTLSTGQDIWNQTN" category=0
protein="PRT-343 (protein) MTITSVWTKGVTPPTPEDFRENNEDVLHAPYLANQGWYDITKAFDGKDNLLCGAATAGNMLHWWFDQNKEEIERYLKKHPEKQKIIFGNQELFDVKAAIDTKDSQTNSKLFDYFRDKAFPNLSARQLGVMPDLVLDMFINGYYLNLGKTQSTDVNRPYQDKDKRGGIFDAVFTRGDQTTLLTARHDLKNKGLNEISDLIKQELTEGKALALSHTYANVSINHVINLWGADFDAEGELEAIYVTDSDANPSIGMKKYFVGRNAHGKVAISAKKIEGDNIGAQVLGLFTLSTGQDIWQKLS" category=1

Input: Strictly below 500 ng/µL: is that where Enzyme Activity Endpoint Assay (purified): Fab'2 of PRT-350 (protein) MSQTEDSESLQRLRDIEDFQAEKKDQNVVYTKWLDGVDVKDHDFRKIVDGNSAYYATPLLNGRGWYDINKDFNRDSDKCAAAVAANMFHYWLDINRDNVDRFLRQNPEKHGIIELPDGQLKLSDFLNTYESDHGYRDKSKLFDFISENFNGPVWTDKLLDNYINGYAYNYKYGRTIEDPTKNTSKINFFKEVFNEKILTNNHSIRNQNEFSVLLIEALYTGKAIGLSYGPAGLRHSLGHIISVWGADLDADGNVVAIYVTDSDDKKLTIGDERVGLKRYKISTDDENRLRLTAYEETHNTGGQVRGLWTLDTGKYAWADYFDKTEQTGTDQAEQ sits?
Output: 0

Input: Strictly below 500 ng/µL: is that where Enzyme Activity Endpoint Assay (purified): Fab'2 of PRT-295 (protein) MVTSVWTKGVTPPADFTQGEDVFHAPYDANQGWYDITKTFNGKDDLLCGAATAGNMLHWWFDQNKEYIEAYLKKHPEKQKIMFGDQELLDVRKAINTKGSQKNSELFNYFRDKAFPNLSARRLGVMPDLVLDMFINGYYLNVTKTQTTDVNRTYQEKDKRGGIFDAVFTRGDQSKLLTSRHDFKEKGLKEISDLIKQELTEGKALGLSHTYANVRISHVINLWGADFDSDGNLKAIYVTDSDSNASIGMKKYFVGVNSSGKVAISAKEIKEDNIGAQVLGLFTLSTGQDIWNQTN sits?
Output: 0

Input: Strictly below 500 ng/µL: is that where Enzyme Activity Endpoint Assay (purified): Fab'2 of PRT-359 (protein) MSQTEDSESLQRLRDIEDFQAEKKDQNVVYTKWLDGVDVKDHDFRKIVDGNIAYYATPLLNGRGLYDINKDFNRDSDKCAAAVAANMFHYWLDRNRDNVDRFLRQNPEKHGIIELPDGQLKLSDFLNTYESDDGYRDKSKLFDFISENFNGPVWTDKLLDNYINGYAYNYKYGRTIEDPTKNTSKINFFKEVFNEKILTNNHSIRNQNELSVLLSEALYTGKAIGLSYGPAGLRHSLGHIISVWGADLDADGNVVAIYVTDSDDKKLTIGDERVGLKRYKISTDDEGRLRLTAYEETHNTGGQVRGLWTLDTGKQAWADYFDKTEQTGTDQAEQ sits?
Output: 1

Input: Strictly below 500 ng/µL: is that where Enzyme Activity Endpoint Assay (purified): Fab'2 of PRT-335 (protein) MTITSVWTKGVTPPTPEDFRENNEDVLHAPYVANQGWYDITKTFDGKDNLLCGAATAGNMLHWWFDQNKEEIERYLKKHPEKQKIIFGNQELFDVKAAIDTKDSQTNSKLFDYFRDKAFPGLSARQLGVFPDLVLDMFINGYYLNLGKTQSTDVNRPYQDKDKRGGIFDAVFTRGVQTTLLTARHDLKNKGLNEISDLIKQELTEGKALALSHTYANVRINHVINLWGADFDAEGELIAIYVTDSDANPSIGMKKYFVGRNANGKVAISAKKIEGDNIGAQVLGLFTLSTGQDQWQKLS sits?
Output: 1

Input: Strictly below 500 ng/µL: is that where Enzyme Activity Endpoint Assay (purified): Fab'2 of PRT-334 (protein) MTITSVWTKGVTPPTPEDFRENNEDVLHAPYVANQGWYDITKTFDGKDNLLCGAATAGNMLHWWFDQNKEEIERYLKKHPEKQKIIFGNQELFDVKAAIDTKDSQTNSKLFDYFRDKAFPGLSARQLGVFPDLVLDMFINGYYLNLGKTQSTDVNRPYQDKDKRGGIFDAVFTRGVQTTLLTARHDLKNKGLNEISDLIKQELTEGKALALSHTYANVRINHVINLWGADFDAEGELIAIYVTDSDANPSIGMKKYFVGRNANGKVAISAKKIEGDNIGAQVLGLFTLSTGQDIWQKLS sits?
Output: 1
